Data credit: ChEMBL document CHEMBL5303573

Test: The drug is tested on Bacteroides caccae strain: ATCC43185 for biotransformation. The drug concentrations were measured before and after a 12-h incubation by liquid-chromatography-coupled mass spectrometry (LC–MS)
Conditions: 2 µM
quantity-kind: Bacterial Biotransformation

Consider the worked cases shown below.
- Nc1nc(NC2CC2)c2ncn([C@H]3C=C[C@@H](CO)C3)c2n1.Nc1nc(NC2CC2)c2ncn([C@H]3C=C[C@@H](CO)C3)c2n1.O=S(=O)(O)O [ABACAVIR SULFATE]: Compound NOT metabolized
- C[C@]12C=CC(=O)C=C1CC[C@@H]1[C@@H]2C(=O)C[C@@]2(C)[C@H]1CC[C@]2(O)C(=O)CO [PREDNISONE]: Compound NOT metabolized
- CN1CCOC(c2ccccc2)c2ccccc2C1 (stereo not drawn) [NEFOPAM]: Compound NOT metabolized
- O=c1n(CCCN2CCN(c3cccc(Cl)c3)CC2)nc2ccccn12 [TRAZODONE]: Compound NOT metabolized
- CC(C)(C)NCC(O)COc1cccc2c1CC(O)C(O)C2 (stereo not drawn) [NADOLOL]: Compound NOT metabolized

For every record below, what is its Bacterial Biotransformation?
1. CN1CCC(=C2c3ccccc3CC(=O)c3sccc32)CC1.O=C(O)/C=C/C(=O)O [KETOTIFEN FUMARATE]
2. CN(C)C(=O)C(CCN1CCC(O)(c2ccc(Cl)cc2)CC1)(c1ccccc1)c1ccccc1 [LOPERAMIDE]
3. CCOc1ccc(NC(C)=O)cc1 [PHENACETIN]
4. CCCC1O[C@@H]2C[C@H]3[C@@H]4CCC5=CC(=O)C=C[C@]5(C)[C@H]4[C@@H](O)C[C@]3(C)[C@]2(C(=O)CO)O1 (stereo partly drawn) [BUDESONIDE]
5. OC(c1cc(C(F)(F)F)nc2c(C(F)(F)F)cccc12)C1CCCCN1 (stereo not drawn) [MEFLOQUINE]
6. CC(=O)OCC(=O)[C@@]12N=C(C)O[C@@H]1C[C@H]1[C@@H]3CCC4=CC(=O)C=C[C@]4(C)[C@H]3[C@@H](O)C[C@@]12C [DEFLAZACORT]
7. COC(=O)C(c1ccccc1)C1CCCCN1 (stereo not drawn) [METHYLPHENIDATE]

Compound NOT metabolized
Compound NOT metabolized
Compound NOT metabolized
Compound NOT metabolized
Compound NOT metabolized
Compound metabolized
Compound NOT metabolized

* * *

Settings: parabacteroides johnsonii, 12 h, 2 µM
Description: The drug is tested on Parabacteroides johnsonii strain: DSM18315 for biotransformation. The drug concentrations were measured before and after a 12-h incubation by liquid-chromatography-coupled mass spectrometry (LC–MS)
quantity-kind: Bacterial Biotransformation

Here's what some known entries look like.
* Cc1ccc(-c2cc(C(F)(F)F)nn2-c2ccc(S(N)(=O)=O)cc2)cc1 | Compound NOT metabolized
* CC[C@@]1(O)C(=O)OCc2c1cc1n(c2=O)Cc2cc3c(CN(C)C)c(O)ccc3nc2-1 | Compound NOT metabolized
* O=C(O)CCC(=O)O.O=C(O[C@H]1CN2CCC1CC2)N1CCc2ccccc2[C@@H]1c1ccccc1 [SOLIFENACIN SUCCINATE] | Compound NOT metabolized
* CC(=O)Oc1ccc(C(c2ccc(OC(C)=O)cc2)c2ccccn2)cc1 | Compound metabolized
* O=C(NCc1ccccc1)OCCO [BURAMATE] | Compound NOT metabolized
* CCCCC1=NC2(CCCC2)C(=O)N1Cc1ccc(-c2ccccc2-c2nnn[nH]2)cc1 | Compound metabolized
* Nc1nc(N)nc(-c2cc(Cl)ccc2Cl)n1.O=C(O)/C=C\C(=O)O [IRSOGLADINE MALEATE] | Compound metabolized
* CN1CCN(C2=Nc3cc(Cl)ccc3Nc3ccccc32)CC1 | Compound NOT metabolized

Alright, here's another compound for you.
Tell me the measured Bacterial Biotransformation of CN1CCN(CC/C=C2/c3ccccc3Sc3ccc(S(=O)(=O)N(C)C)cc32)CC1 , please.
Compound metabolized
